# EC50 values compiled below
Target: human GPR40 receptor (Homo sapiens, UniProt O14842)
Sequence (O14842 whole entry): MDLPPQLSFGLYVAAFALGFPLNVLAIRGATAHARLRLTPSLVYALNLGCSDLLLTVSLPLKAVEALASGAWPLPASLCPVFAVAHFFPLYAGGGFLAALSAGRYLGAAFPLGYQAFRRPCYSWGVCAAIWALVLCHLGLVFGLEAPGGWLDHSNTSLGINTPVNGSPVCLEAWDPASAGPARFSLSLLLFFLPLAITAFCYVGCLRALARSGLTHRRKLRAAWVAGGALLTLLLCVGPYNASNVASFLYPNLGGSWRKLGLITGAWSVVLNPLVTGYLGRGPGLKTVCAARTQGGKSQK
Test: IP1 accumulation measurements using the IPOne assay system in 1321N1 cells stably expressing human GPR40 receptor
Assay type: cell-based
Settings: IP1 accumulation (HTRF), 1321N1 cells stably expressing human GPR40, 1 hour stimulation at 37° C.
Property Label: EC50 (nM)

sample_smiles=Cc1cc(OC(C)(C)C(N)=O)cc(C)c1-c1ccc(F)c2c1CC[C@H]2Oc1ccc([C@H]2C[C@@H]2C(=O)O)cc1 property_label=EC50 measurement_unit=nM number=18
sample_smiles=O=C(O)[C@@H]1C[C@H]1c1ccc(O[C@@H]2CCc3c2cccc3C(F)(F)F)cc1 property_label=EC50 measurement_unit=nM number=457
sample_smiles=O=C(O)[C@H]1C[C@@H]1c1ccc(O[C@@H]2CCc3c(-c4cncc5ccccc45)ccc(F)c32)cc1 property_label=EC50 measurement_unit=nM number=6
sample_smiles=N#Cc1ncccc1-c1ccc(F)c2c1CC[C@H]2Oc1ccc([C@H]2C[C@@H]2C(=O)O)cc1 property_label=EC50 measurement_unit=nM number=75
